FYI, the data here is from the supplement of paper PMC9170038.

Test system: MS2 coat protein
Test: apparent KD of MS2 coat protein; designed switch direction (-1 OFF switch, 1 ON switch): -1; higher = weaker reporter binding
Conditions: input ligand: none
// reported apparent KD of MS2 coat protein per item
Answer in nM, number only, no unit symbol.

Look over these answered cases.
GAACUGAGGCAAAGCUUUAGUCGUACAUGAGGAUCACCCAUGUAGGAUAUGGUAGGCAAAGCAUACCAGAAGGACAGAGUGAUC [Mat - Exclusion NG 3 - Mod of JL - D61] (Eterna round: R96, puzzle: Exclusion NG 3)
476
AAAAUGGCAGGAUAUACAUGAGGAUCACCCAUGUUCGUCUUUACAUGUAAAAUGCUCUGUAGAAGGGCCUCGAA [Quised] (Eterna round: R97, puzzle: Exclusion 3)
21.9
AAUACAAGCUAUUGAUCCCACAUGAGGAUCACCCAUGUAGGAGGCGGUGACACCUCCUUUACGAUAGCUCGUCUUAU [Sensor-V1 #53] (Eterna round: R97, puzzle: Sensor, turn-off variant 1)
219

# input Item GAAAAGGUAGAGGAUAUUUCAGAUCAAAGCUGCAAAGAAGGCUGCACAUGAGGAUCACCCAUGUGGUCAAUAAA [Mod of Quesina 12 - Jieux - Exclusion 6] (Eterna round: R97, puzzle: Exclusion 6) has what recorded apparent KD of MS2 coat protein?
# output 20.9

# input Item AGUGUGAGGCAGGAUAUGCAAUUUGUAAGUAAUGCAGAAGGGUCUACAUGAGGAUCACCCAUGUGUGCGGUUGA [Ex6 #11] (Eterna round: R97, puzzle: Exclusion 6) has what recorded apparent KD of MS2 coat protein?
# output 246

====

Test system: MS2 coat protein
Assay: apparent KD of MS2 coat protein; designed switch direction (-1 OFF switch, 1 ON switch): -1; higher = weaker reporter binding
Settings: Eterna round: R95; input ligand: FMN 200 uM
Class membership depends on apparent KD of MS2 coat protein alone; the intervals are bottom range = under 20 nM, center range = from 20 nM up to 90 nM, top range = 90 nM and over

Answered examples (2):
CUGAGGUAGCGGUCCUAUUACAUGAGGAUCACCCAUGUACCUUGCUUCGAGCUUUUAGCUCGUCUUAUGAUUCUCGG [Mat - Sensor v3 - turn-off var 1 - JL Mod - D38] (puzzle: Sensor v3, turn-off variant 1)
top range
UCAUGUUUAGAGGAUAUGAUUACUUUGGAGUAAUCAGAAGGCUAGACAUGAGGAUCACCCAUGUCAUAACAUGA [Exclusion 6 - B - 15:c] (puzzle: Exclusion 6)
center range

# input Hi, small favor: classify GAUUAUGCGAGCUUUAGGGACAUGAGGAUCACCCAUGUUCGUCUUAUUGAUCUAGAUGCACUGACAUACCUAAAUCU [JMF 77] (puzzle: Sensor v3, turn-off variant 1) by its apparent KD of MS2 coat protein when you get a moment.
# output bottom range

# input Hi, small favor: classify GUGGUGACAGGAUAUACAUGAGGAUCACCCAUGUGAGGAGGACGAGACAGGUGAAGGAGUAGAAGGGUCAGAGA [JR_Exclu3_Sub026] (puzzle: Exclusion 3) by its apparent KD of MS2 coat protein when you get a moment.
# output top range

# input Hi, small favor: classify ACGUCCCAAGUCAGGAUAUAGGCCGGACAAAGGGACUAGAAGGGACAUGAGGAUCACCCAUGUGGGCAAAAGAC [Terarace] (puzzle: Brourd's mod of Exclusion 4) by its apparent KD of MS2 coat protein when you get a moment.
# output center range

# input Hi, small favor: classify GAUUAUGCGAGCUUUAGGGACAUGAGGAUCACCCAUGUUCGUCUUAUUAGUCUAAGUGCACUGACAUACCUAAAUCU [JMF 83] (puzzle: Sensor v3, turn-off variant 1) by its apparent KD of MS2 coat protein when you get a moment.
# output bottom range

====

Tested on: MS2 coat protein
Assay: apparent KD of MS2 coat protein; designed switch direction (-1 OFF switch, 1 ON switch): -1; higher = weaker reporter binding
Details: input ligand: none
// reported apparent KD of MS2 coat protein per item
For clarity, give the value followed by its unit.

Look over these answered cases.
UAUUAGGGAGGAUAUCGCAGUUGCAACAUGAGGAUCACCCAUGUGAACAGCCUCACCAAUCGAGAAGGCCUGAGUG [Eternabot (L2) Solution 59] (Eterna round: R97, puzzle: Exclusion 5)
75.5 nM
GUCAGCUCGUGAGGAUAUACAUGAGGAUCACCCAUGUGAUCAAUAGCAGCUUCGGCUGCAAUAAUGUAGAAGGCACGAGCUGAC [ENG2/8-C] (Eterna round: R96, puzzle: Exclusion NG 2)
144 nM
AGCCCUGCAGGAUAUGCCCGGGAUAACAUGAGGAUCACCCAUGUGACCGAUUGUUAUCCUGCAGAAGGGCAUGGGA [JL-EX5-4.12 ViennaUCT mod] (Eterna round: R97, puzzle: Exclusion 5)
161 nM

# input Item AACAAGGUAGGAUAUACAUGAGGAUCACCCAUGUCCCACCCGUUACCUAUGACCAUAUGUAGAAGGACCAAUAA [Exy#6] (Eterna round: R97, puzzle: Exclusion 3) has what recorded apparent KD of MS2 coat protein?
# output 17.8 nM

# input Item UUAAGUUCAGGAUAUGAUGAAUUAAACAUGAGGAUCACCCAUGUAGAUCCUGAAUUAACAUCAGAAGGGAAUAUUU [JL-ex5-4.52 Brourd mod] (Eterna round: R97, puzzle: Exclusion 5) has what recorded apparent KD of MS2 coat protein?
# output 13.5 nM

====

Tested on: K4 kissing-loop RNA reporter;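 further: bound reporter read as fluorescence of individual clusters on recovered sequencing chips by microscopy, with normalized cluster intensities fitted with a binding model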
Test: apparent KD of K4 kissing-loop reporter; higher = weaker reporter binding
Settings: Eterna round: R107; input ligand: tryptophan 2.4 mM
// reported apparent KD of K4 kissing-loop reporter per item
Answer in nM, number only, no unit symbol.

GCGGCCCAGCCGGAUACCAGUGACCCGCUGGGAACCGCGGGCCCAGAGUGAUGUUCGGGACACCCUUGGCAGCCGCCUGGGACGC [#2 Same State - Theophylline B Attempt #17 (HarryS)]
193
UUACUACCCAGUGAUGUUGGGUAGCGGCGGCGAGGACCGGUACGGCCGCCACUCGGCGCACGGGAGUGAUGUUCCUAAGAAUAAA [Same State Tryptophan A GF 9]
140

Below: the item to evaluate.
# input Item AUUAUAAAGUCGGCCGCCACUGAGAGUAGUGAUGUUACUCUUUUCCUUUAGAUAUUAUAUUUUAUCAGGACCGGGACAUCAGAUU [JR_ExcTryptoB_Sub020] has what recorded apparent KD of K4 kissing-loop reporter?
# output 162

====

Tested on: MS2 coat protein
Experiment: apparent KD of MS2 coat protein; designed switch direction (-1 OFF switch, 1 ON switch): -1; higher = weaker reporter binding
Settings: input ligand: none
parameter: apparent KD of MS2 coat protein (nM)
Answer in nM, number only, no unit symbol.

Look over these answered cases.
ACAUGAGGAUCACCCAUGUAAUGAUGGGUACUAUAUUAUUCGUAGGAUAUCGUUGUUAGUUUGUGCGAGAAGGACGUUUGCCUU [JR_ExcNG3_Sub056] (Eterna round: R96, puzzle: Exclusion NG 3)
698
ACAACAUGAGGAUCACCCAUGUGUGUUGUCCCAUGUGUGUAUAAGGAUAUAUGAAGGAAGGAGGAAUAGAAGGUAUAGAAGGAG [Am I even doing this right] (Eterna round: R96, puzzle: Exclusion NG 3)
1200
GGCGCCUCAGGAUAUCAGUCUGGAUCAGAAUAGAUCCUGACUGAGAAGGGACAUGAGGAUCACCCAUGUUCGCC [Eli 4x 4.29] (Eterna round: R97, puzzle: Exclusion 4)
18.9

Below: the item to evaluate.
# input Item AGAGUGCUGCGAGGAUAUACAUGAGGAUCACCCAUGUUUUCGUGUGAGGCUUUGCCUCACACGAAGUAGAAGGCGCAGUACUCA [Mat - Exclusion NG 2 - Mod of JL - D32] (Eterna round: R96, puzzle: Exclusion NG 2) has what recorded apparent KD of MS2 coat protein?
# output 10.9

====

System: MS2 coat protein
Assay: apparent KD of MS2 coat protein; designed switch direction (-1 OFF switch, 1 ON switch): -1; higher = weaker reporter binding
Settings: input ligand: microRNA oligo, concentration not stated
parameter: apparent KD of MS2 coat protein (nM)
Answer in nM, number only, no unit symbol.

ACAUGUUAUGUAGGAUAUUAUACACAUGAGGAUCACCCAUGUAACCGGAGGCUUUACUAUGAGUAUGAGAAGGGUAUGAACAUG [Ex NG2 #65] (Eterna round: R96, puzzle: Exclusion NG 2)
64.2
UUGUUGUAUGUAGGAUAUGCAUAUUAUUAUUAUGCAGAAGGACAUGAGGAUCACCCAUGUGUAUUAUUAUUAUAUAUUAUAUAU [Title] (Eterna round: R96, puzzle: Exclusion NG 1)
20

Below: the item to evaluate.
# input Item AGUACCUGAGUACAAUGUAACAUGAGGAUCACCCAUGUAAUUGGGUGAGAACAAGCUCACCGUUCGUCUUAAAUAAA [JL turnoff v1 80] (Eterna round: R96, puzzle: Sensor v2, turn-off variant) has what recorded apparent KD of MS2 coat protein?
# output 55.3
